Reported TGI values for the following molecules.
System: SK-MEL-28 melanoma
protocol details: NCI tumour cell line growth inhibition, 48 h

> print(dat)
                                   molecule  measured.endpoint  observed
1  OCC(O)C1OC2CC1Nc1ccccc1N2 (stereo not given)                TGI  > 100 µM
2  O=c1[nH]c(=O)n(COCc2ccccc2)c2ccc(Br)cc12                TGI  > 100 µM
3  O=C(/C=C/c1ccc(-c2ccccc2)cc1)NCc1ccc(C(=O)NCCc2c[nH]c3ccccc23)cc1                TGI  > 100 µM
4  CCOC(=O)C(=O)C1C(=O)Nc2ccccc21 (stereo not given)                TGI  > 100 µM

// switching to the query molecule
Answer with the recorded TGI of COc1cc(N=Nc2ccccc2)cc(/C=N\[N-]C(N)=S)c1[O-].COc1cc(N=Nc2ccccc2)cc(/C=N\[N-]C(N)=S)c1[O-].[Fe+4] only.
> 100 µM

Just for reference, PubChem BioAssay (NCI) is where these values come from.
